- experimentalTarget: NLRP3 inflammasome (Homo sapiens (Human), UniProt Q96P20)
- Sequence (Q96P20 whole entry): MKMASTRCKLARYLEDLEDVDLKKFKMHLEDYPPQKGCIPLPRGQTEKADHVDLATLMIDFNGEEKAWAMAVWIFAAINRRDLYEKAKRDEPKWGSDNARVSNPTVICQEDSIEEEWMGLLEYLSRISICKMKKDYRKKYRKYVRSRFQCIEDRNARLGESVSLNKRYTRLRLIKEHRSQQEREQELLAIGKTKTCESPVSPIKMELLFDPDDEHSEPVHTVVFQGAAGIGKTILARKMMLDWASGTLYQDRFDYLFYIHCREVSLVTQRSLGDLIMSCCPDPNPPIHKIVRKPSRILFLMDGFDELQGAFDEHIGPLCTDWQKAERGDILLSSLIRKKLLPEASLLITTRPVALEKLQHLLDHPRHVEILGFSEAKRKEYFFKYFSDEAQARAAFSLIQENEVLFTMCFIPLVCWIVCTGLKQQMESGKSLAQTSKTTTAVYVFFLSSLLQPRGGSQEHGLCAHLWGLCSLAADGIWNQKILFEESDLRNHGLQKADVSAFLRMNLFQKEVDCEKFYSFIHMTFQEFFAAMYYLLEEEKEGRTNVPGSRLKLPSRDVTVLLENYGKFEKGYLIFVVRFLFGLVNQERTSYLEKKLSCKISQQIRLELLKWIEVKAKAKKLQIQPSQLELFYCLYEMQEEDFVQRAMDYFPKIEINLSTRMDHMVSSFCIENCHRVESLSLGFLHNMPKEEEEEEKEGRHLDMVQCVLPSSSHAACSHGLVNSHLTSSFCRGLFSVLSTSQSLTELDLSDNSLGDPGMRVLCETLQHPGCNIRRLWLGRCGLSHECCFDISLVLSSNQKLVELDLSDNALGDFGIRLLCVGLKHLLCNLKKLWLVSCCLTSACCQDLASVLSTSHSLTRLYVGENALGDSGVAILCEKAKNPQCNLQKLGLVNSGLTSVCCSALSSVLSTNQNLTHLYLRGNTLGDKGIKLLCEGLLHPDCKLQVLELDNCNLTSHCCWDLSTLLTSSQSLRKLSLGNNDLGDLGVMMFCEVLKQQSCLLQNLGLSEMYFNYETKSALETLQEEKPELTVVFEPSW
- assayProtocol: Evaluation of NLRP3 inflammasome inhibitory activity (inhibition of IL-1β production in LPS/Nigericin-stimulated THP1-Null cells)
- conditionNotes: IL-1β production in THP1-Null cells, PMA, LPS 1 μg/mL, Nigericin 7.5 μmol/L, AlphaLISA
pIC50: −log10 of the molar value.
Label class 0 if pIC50 falls below 7; label class 1 in every other case.

See these solved cases before continuing.
1. Cc1cc(C2CC2)cc(F)c1-n1cc2c(=O)[nH]c(N3C[C@H]4C[C@@H]3CO4)nc2n1 [Example 299] = class 1
2. O=c1[nH]c(N2CCOCC2)nc2nn(-c3ccc(C4CC4)cc3C3CC3)cc12 [Example 210] = class 1
3. COc1cc(Cl)ccc1-n1cc2c(=O)[nH]c(N3CCCC3)nc2n1 [Example 205] = class 1
4. Cc1cc(C(C)C)cc(C)c1-n1cc2c(=O)[nH]c(N3CCOCC3)nc2n1 [Example 301] = class 1
5. Cc1ccc(-n2cc3c(=O)[nH]c(N4CCCC4)nc3n2)cc1C [Example 52] = class 0

Does C#Cc1ccc(-n2cc3c(=O)[nH]c(N4CCCC4)nc3n2)c(C)c1 [Example 119] have a reported pIC50 of at least 7?
class 1

Does Cc1ccccc1-n1cc2c(=O)[nH]c(N3CCCCC3)nc2n1 [Example 15] have a reported pIC50 of at least 7?
class 0

###

Entries annotated with measured IC50
- experimentalTarget: NLRP3 inflammasome (Homo sapiens (Human), UniProt Q96P20)
- assayProtocol: Evaluation of NLRP3 inflammasome inhibitory activity (inhibition of IL-1β production in LPS/Nigericin-stimulated THP1-Null cells)
- conditionNotes: IL-1β production in THP1-Null cells, PMA, LPS 1 μg/mL, Nigericin 7.5 μmol/L, AlphaLISA

Solved entries:
1. Cc1cc(C2CC2)cc(Cl)c1-n1cc2c(=O)[nH]c(N3C[C@H]4C[C@@H]3CO4)nc2n1 [Example 287] = 9.6 nM
2. COc1nc(N2CCCC2)nc2nn(-c3ccccc3C)cc12 [Example 13] = 7700 nM
3. O=c1[nH]c(NC2CCOCC2)nc2nn(-c3ccc(C(F)(F)F)cc3Cl)cc12 [Example 184] = 67 nM
4. Cc1cc(Br)ccc1-n1cc2c(OCC3CC3)nc(N3CCOCC3)nc2n1 [Example 155] = 290 nM
5. Cc1cc(C)c(-n2cc3c(=O)[nH]c(N4CCCC(CO)C4)nc3n2)c(C)c1 (racemic) [Example 116] = 79 nM

According to the records, this molecule C[C@@H]1COCCN1c1nc2nn(-c3ccc(Br)cc3C(F)(F)F)cc2c(=O)[nH]1 [Example 258] displays IC50 of 23 nM

According to the records, this molecule Cc1cc(C)c(-n2cc3c(=O)[nH]c(N4CC5COCC5C4)nc3n2)c(C)c1 (centres unmarked) [Example 117] displays IC50 of 46 nM

According to the records, this molecule Cc1cc(Br)cc(C)c1-n1cc2c(=O)[nH]c(N3CC4CC3CN4S(C)(=O)=O)nc2n1 (racemic) [Example 219] displays IC50 of 19 nM

###

Entries annotated with measured IC50
- experimentalTarget: NLRP3 inflammasome (Homo sapiens (Human), UniProt Q96P20)
- assayProtocol: Evaluation of NLRP3 inflammasome inhibitory activity (inhibition of IL-1β production in LPS/Nigericin-stimulated THP1-Null cells)
- conditionNotes: IL-1β production in THP1-Null cells, PMA, LPS 1 μg/mL, Nigericin 7.5 μmol/L, AlphaLISA
Write down the numeric answer in nM and omit the unit.

Solved entries:
1) COC1CCCN(c2nc3nn(-c4c(C)cc(C)cc4C)cc3c(=O)[nH]2)C1 (racemic) = 200
2) Cc1cc(C#N)ccc1-n1cc2c(=O)[nH]c(N3CCCC3)nc2n1 = 1200
3) Cc1cc(C2CC2)cc(C)c1-n1cc2c(=O)n(C)c(N3CC4CC(C3)O4)nc2n1 = 250

Summary line: "O=c1[nH]c(N2CCOCC2)nc2nn(-c3ccc(Br)cc3OC(F)(F)F)cc12" , NLRP3 inflammasome (Homo sapiens (Human), UniProt Q96P20), reported IC50 = 12

Summary line: "O=c1[nH]c(N2CCCOCC2)nc2nn(-c3ccc(C(F)(F)F)cc3Cl)cc12" , NLRP3 inflammasome (Homo sapiens (Human), UniProt Q96P20), reported IC50 = 35

Summary line: "Cc1ccc(-n2cc3c(=O)[nH]c(N4CCN(C)CC4)nc3n2)c(C)c1" , NLRP3 inflammasome (Homo sapiens (Human), UniProt Q96P20), reported IC50 = 95

Summary line: "Nc1cc(C(F)(F)F)cc(Cl)c1-n1cc2c(=O)[nH]c(N3CCOCC3)nc2n1" , NLRP3 inflammasome (Homo sapiens (Human), UniProt Q96P20), reported IC50 = 20

Summary line: "CONc1nc2nn(-c3c(C)cc(C4CC4)cc3C)cc2c(=O)[nH]1" , NLRP3 inflammasome (Homo sapiens (Human), UniProt Q96P20), reported IC50 = 33

###

- experimentalTarget: NLRP3 inflammasome (Homo sapiens (Human))
- assayProtocol: Evaluation of NLRP3 inflammasome inhibitory activity (inhibition of IL-1β production in LPS/Nigericin-stimulated THP1-Null cells)
- conditionNotes: IL-1β production in THP1-Null cells, PMA, LPS 1 μg/mL, Nigericin 7.5 μmol/L, AlphaLISA
Label rule met when IC50 < 0.02 µM; otherwise rule not met.

See these solved cases before continuing.
1. Cc1cc(Br)ccc1-n1cc2c(=O)[nH]c(N3CC4(COC4)C3)nc2n1 = rule not met
2. COC[C@@H]1CCN(c2nc3nn(-c4ccc(Br)cc4C)cc3c(=O)[nH]2)CCO1 = rule not met
3. CO[C@H]1CCN(c2nc3nn(-c4c(C)cc(C5CC5)cc4C)cc3c(=O)[nH]2)C1 = rule not met
4. Cc1cc(C2CC2)cc(F)c1-n1cc2c(=O)[nH]c(N3C[C@@H]4C[C@H]3CO4)nc2n1 = rule met
5. Cc1ccccc1-n1cc2c(=O)[nH]c(N3CCC(c4ccccc4)C3)nc2n1 (racemic) = rule not met
6. CONc1nc2nn(-c3c(C)cc(Br)cc3C)cc2c(=O)[nH]1 = rule not met
7. Cc1ccccc1-n1cc2c(=O)[nH]c(NCC(C)C)nc2n1 = rule not met
8. Cc1cc(Br)ccc1-n1cc2c(=O)[nH]c(N3CCNC(=O)C3)nc2n1 = rule not met

Here's an entry: "Cc1cc(Br)ccc1-n1cc2c(=O)[nH]c(N3CCN(S(=O)(=O)C4CC4)CC3)nc2n1" . Is its IC50 below 0.02 µM?
rule met

Here's an entry: COC1CCN(c2nc3nn(-c4ccc(Br)cc4C)cc3c(=O)[nH]2)C1 (racemic) . Is its IC50 below 0.02 µM?
rule not met

Here's an entry: "COCCNc1nc2nn(-c3ccc(C)cc3C)cc2c(=O)[nH]1" . Is its IC50 below 0.02 µM?
rule not met

Here's an entry: "Cc1cc(Br)ccc1-n1cc2c(=O)[nH]c(N3CC4CC(C3)O4)nc2n1" . Is its IC50 below 0.02 µM?
rule met

###

Entries annotated with measured pIC50
- experimentalTarget: UniProt:Q96P20
- assayProtocol: Evaluation of NLRP3 inflammasome inhibitory activity (inhibition of IL-1β production in LPS/Nigericin-stimulated THP1-Null cells)
- conditionNotes: IL-1β production in THP1-Null cells, PMA, LPS 1 μg/mL, Nigericin 7.5 μmol/L, AlphaLISA
Interpret pIC50 as the negative base-10 log of the concentration measured in mol/L.

Solved entries:
1. Cc1cc(C(F)(F)F)cc(C)c1-n1cc2c(=O)[nH]c(N3CCOCC3)nc2n1 [Example 237] = 7.64
2. Cc1cc(C2CC2)cc(C)c1-n1cc2c(=O)[nH]c(N3CCCOCC3)nc2n1 [Example 326] = 8.12
3. Cc1cc(Br)cc(C)c1-n1cc2c(=O)[nH]c(N3CCOC(O)C3)nc2n1 (racemic) [Example 364] = 7.18
4. Cc1cc(C(F)(F)F)cc(C)c1-n1cc2c(=O)[nH]c(N3CC4CC(C3)O4)nc2n1 [Example 277] = 7.80
5. Cc1cc(Br)cc(C)c1-n1cc2c(=O)[nH]c(N3CCC(C(C)(C)O)C3)nc2n1 (racemic) [Example 194] = 7.62

Summary line: Cc1ccc(-n2cc3c(=O)[nH]c(N4CCCC4)nc3n2)cc1 [Example 40] , UniProt:Q96P20, reported pIC50 = 6.11

Summary line: Cc1cc(Cl)ccc1-n1cc2c(=O)[nH]c(N3CCOCC3)nc2n1 [Example 164] , UniProt:Q96P20, reported pIC50 = 7.54

Summary line: CC(=O)c1cc(Br)ccc1-n1cc2c(=O)[nH]c(N3CCOCC3)nc2n1 [Example 131] , UniProt:Q96P20, reported pIC50 = 7.20
